Condition Label: in p-xylene, 288.15 K
Assay Endpoint: solubility (mole fraction)
Kindly provide the number alone.

## Task Look up solubility (mole fraction) for this compound: CC(C)(C)C(=O)C(Oc1ccc(Cl)cc1)n1cncn1 (stereo unspecified)
## Result 0.0631

====

Condition Label: in acetonitrile, 328.15 K
Assay Endpoint: solubility (mole fraction)
Reply with just the number.

## Task Endpoint output: solubility (mole fraction) of CC(C)(C)C(=O)C(Oc1ccc(Cl)cc1)n1cncn1 (stereo unspecified) . Value?
## Result 0.0479

====

Condition Label: in toluene, 288.15 K
Assay Endpoint: solubility (mole fraction)
Just the number, please.

## Task Sample CC(C)(C)C(=O)C(Oc1ccc(Cl)cc1)n1cncn1 (stereo unspecified) — what was its solubility (mole fraction)?
## Result 0.0916

====

Condition Label: in toluene, 318.15 K
Assay Endpoint: solubility (mole fraction)
# output: bare number, no unit

## Task Reported solubility (mole fraction), compound CC(C)(C)C(=O)C(Oc1ccc(Cl)cc1)n1cncn1 (stereo unspecified) : ____
## Result 0.333

====

Condition Label: in acetonitrile, 308.15 K
Assay Endpoint: solubility (mole fraction)
No unit in the answer, please; the number alone is enough.

## Task Reported solubility (mole fraction), compound CC(C)(C)C(=O)C(Oc1ccc(Cl)cc1)n1cncn1 (stereo unspecified) : ____
## Result 0.0238

====

Condition Label: in p-xylene, 323.15 K
Assay Endpoint: solubility (mole fraction)
Just the number.

## Task Which solubility (mole fraction) value is on record for CC(C)(C)C(=O)C(Oc1ccc(Cl)cc1)n1cncn1 (stereo unspecified) ?
## Result 0.372

====

Condition Label: in acetonitrile, 298.15 K
Assay Endpoint: solubility (mole fraction)
Form field (numeric): enter value without unit.

## Task Fill in: solubility (mole fraction) of CC(C)(C)C(=O)C(Oc1ccc(Cl)cc1)n1cncn1 (stereo unspecified) is ___
## Result 0.0162

====

Condition Label: in toluene, 313.15 K
Assay Endpoint: solubility (mole fraction)
Write the number on its own, no unit after it.

## Task For the molecule CC(C)(C)C(=O)C(Oc1ccc(Cl)cc1)n1cncn1 (stereo unspecified) , what solubility (mole fraction) is on record?
## Result 0.282

====

Condition Label: in n-heptane, 293.15 K
Assay Endpoint: solubility (mole fraction)
The answer should be a number; do not append a unit.

## Task So what's the measured solubility (mole fraction) for this one? CC(C)(C)C(=O)C(Oc1ccc(Cl)cc1)n1cncn1 (stereo unspecified)
## Result 0.00204

====

Condition Label: in cyclohexane, 293.15 K
Assay Endpoint: solubility (mole fraction)
API note: the answer field is a bare number with no unit suffix.

## Task Would you kindly share the measured solubility (mole fraction) for CC(C)(C)C(=O)C(Oc1ccc(Cl)cc1)n1cncn1 (stereo unspecified) ?
## Result 0.00143

====

Condition Label: in n-heptane, 318.15 K
Assay Endpoint: solubility (mole fraction)
Respond with the number and no other words.

## Task What value of solubility (mole fraction) has been reported for the following compound? CC(C)(C)C(=O)C(Oc1ccc(Cl)cc1)n1cncn1 (stereo unspecified)
## Result 0.0164

====

Condition Label: in toluene, 323.15 K
Assay Endpoint: solubility (mole fraction)
Lab note: write the figure by itself, no unit.

## Task So what does the record say about solubility (mole fraction) for CC(C)(C)C(=O)C(Oc1ccc(Cl)cc1)n1cncn1 (stereo unspecified) ?
## Result 0.381
